biological target: HLA-A*3301 (Homo sapiens, UniProt P04439, A270S/D185E/E176V/E277Q/E87N/F33T/G231S/H175R/I121M/I218V/I322F/K168Q/K210R/L300P/L318F/M331R/P217A/Q86R/Q94H/R138Q/T323A/T345S/T97I/V358M/Y195H); type: binding; conditions: Table XXIII, HLA-A3 supermotif-bearing peptides
Where no end group is shown, it is not given here.
Metric: IC50 (nM)
I only need the number, in nM, no unit after it.

For LVKSPNHVR [Her2/neu.852.R9] , write its IC50.
107

For HVVPWDQLFR [Her2/neu.478.V2] , write its IC50.
193

For AVPLDSTFYK [Her2/neU.997.V2K10] , write its IC50.
22300

For TILWKDIFHK [Her2/neu.166] , write its IC50.
690

###

molecular target: HLA-A*0201 (Homo sapiens, UniProt P04439, D140Y/D185E/D98H/E176V/E277Q/G131W/G231S/I119V/I121R/I166T/I218V/L300P/L318F/N151K/N90K/P208A/P217A/Q86G/Q94H/R138H/R169H/T345S); format: binding; details: HLA-A2 supermotif-bearing peptides, Table XXVII
Where no end group is shown, it is not given here.
Metric: pIC50
In textbook form, pIC50 equals minus log to base ten of the concentration in mol/L.

For VLLGVVFGV , write its pIC50.
8.62

###

target: DRB1*0701 (DR7) (Homo sapiens, UniProt P01903+P01911, A100R/A102G/A103Q/D57E/D86V/E43K/F76Y/K127E/L162R/M171V/P40G/Q125H/Q99D/R33Q/R42Y/R54Q/S133A/S66F/T210M/V115G/Y107V/Y59L/Y89S); experiment: HLA class II peptide binding assay, purified HLA; conditions: Table XIX, DR supermotif peptides; unit not given
I'd appreciate it if you could supply DR7 binding data values for the items below.
Number only, please.

For CC[C@H](C)[C@H](NC(=O)[C@H](C)NC(=O)[C@@H](NC(=O)[C@@H]1CCCN1C(=O)[C@@H](NC(=O)[C@H](CCCCN)NC(=O)[C@@H](NC(=O)[C@H](CC(N)=O)NC(=O)[C@H](CCC(=O)O)NC(=O)CN)C(C)C)[C@@H](C)CC)C(C)C)C(=O)N[C@@H](CCCCN)C(=O)N[C@H](C(=O)N[C@@H](CC(C)C)C(=O)N[C@@H](CCCNC(=N)N)C(=O)N[C@@H](CCC(=O)O)C(=O)O)C(C)C , write its DR7 binding data.
0.0310

For CC[C@H](C)[C@H](NC(=O)CNC(=O)[C@H](Cc1ccccc1)NC(=O)[C@@H](NC(=O)[C@@H](NC(=O)CNC(=O)[C@H](CC(C)C)NC(=O)[C@@H](N)C(C)C)C(C)C)C(C)C)C(=O)N[C@@H](CC(C)C)C(=O)N[C@H](C(=O)N[C@@H](CCCCN)C(=O)N[C@@H](CCCNC(=N)N)C(=O)N[C@@H](CCCNC(=N)N)C(=O)N[C@@H](CCC(N)=O)C(=O)N[C@@H](CCC(N)=O)C(=O)O)[C@@H](C)CC , write its DR7 binding data.
0.0320

For CC[C@H](C)[C@H](NC(=O)[C@H](CO)NC(=O)[C@H](CCC(=O)O)NC(=O)[C@H](CC(C)C)NC(=O)[C@H](C)NC(=O)[C@H](CCSC)NC(=O)[C@H](Cc1c[nH]c2ccccc12)NC(=O)[C@H](CCCCN)NC(=O)[C@@H](NC(=O)[C@@H]1CCCN1C(=O)[C@@H](NC(=O)[C@@H](N)CCCCN)C(C)C)[C@@H](C)CC)C(=O)N[C@@H](CC(C)C)C(=O)N[C@@H](CCCNC(=N)N)C(=O)N[C@@H](CCCNC(=N)N)C(=O)O , write its DR7 binding data.
0.0190

For CSCC[C@H](NC(=O)[C@@H](NC(=O)[C@H](Cc1ccc(O)cc1)NC(=O)[C@H](C)NC(=O)[C@H](CCC(=O)O)NC(=O)[C@@H](N)CC(=O)O)C(C)C)C(=O)N[C@@H](C)C(=O)NCC(=O)N[C@H](C(=O)NCC(=O)N[C@@H](CO)C(=O)N1CCC[C@H]1C(=O)N[C@@H](Cc1ccc(O)cc1)C(=O)N[C@H](C(=O)N[C@@H](CO)C(=O)O)C(C)C)C(C)C , write its DR7 binding data.
0.2000

For CC[C@H](C)[C@H](NC(=O)[C@H](CCC(=O)O)NC(=O)[C@@H](N)CCCCN)C(=O)N[C@@H](CC(C)C)C(=O)N[C@@H](CC(=O)O)C(=O)N[C@@H](CCC(=O)O)C(=O)N[C@@H](C)C(=O)N[C@@H](Cc1ccc(O)cc1)C(=O)N[C@H](C(=O)N[C@@H](CCSC)C(=O)N[C@@H](C)C(=O)NCC(=O)N[C@H](C(=O)NCC(=O)N[C@@H](CO)C(=O)O)C(C)C)C(C)C , write its DR7 binding data.
−0.0011

Data origin, for the record: patent US20040121946A9
